measurement-target: C-X-C chemokine receptor type 3 (Homo sapiens)
assay-explanation: Displacement of [125I]-CXCL10 from human CXCR3 expressed in CHO cell membrane
Type: cell membranes
measured-quantity: pIC50
FYI, pIC50 means -log10 of a concentration in mol per litre.

Here is how some compounds turned out for pIC50.
{"compound": "CN(CCCn1c(=N)n(CC(=O)c2ccc(Cl)cc2)c2cccc(Cl)c21)C(=O)C(C)(C)C", "measurement-target": "C-X-C chemokine receptor type 3 (Homo sapiens)", "measured-quantity": "pIC50", "readout-value": 6.22}
{"compound": "CCn1c(=N)n(CC(=O)c2ccc(Cl)cc2)c2ccccc21", "measurement-target": "C-X-C chemokine receptor type 3 (Homo sapiens)", "measured-quantity": "pIC50", "readout-value": 6.15}
{"compound": "N=c1n(CC(=O)c2ccc(Cl)cc2)c2cccc(Cl)c2n1CC1CCCN(C(=O)c2cccc3cccnc23)C1 (stereo not given)", "measurement-target": "C-X-C chemokine receptor type 3 (Homo sapiens)", "measured-quantity": "pIC50", "readout-value": 7.82}
{"compound": "CN(CCCn1c(=N)n(CC(=O)c2ccc(Cl)cc2)c2cccc(Cl)c21)C(=O)c1ccccn1", "measurement-target": "C-X-C chemokine receptor type 3 (Homo sapiens)", "measured-quantity": "pIC50", "readout-value": 7.52}
{"compound": "N=c1n(CC(=O)c2ccc(Cl)cc2)c2cccc(Cl)c2n1C[C@@H]1CCCN(C(=O)c2cccc3cccnc23)C1", "measurement-target": "C-X-C chemokine receptor type 3 (Homo sapiens)", "measured-quantity": "pIC50", "readout-value": 7.82}

// next item, pIC50 requested
[in] What pIC50 appears in the records for this compound with C-X-C chemokine receptor type 3 (Homo sapiens)? CN(CCn1c(=N)n(CC(=O)c2ccc(Cl)cc2)c2ccccc21)C(=O)C1CCCCC1
[out] 6.30

###

assay-explanation: Metabolic stability in mouse liver microsomes assessed as half life
Format: ADME, Microsome
The compounds listed here are annotated with their half-life.
Number in min, nothing else.

Here is how some compounds turned out for half-life.
{"smiles-notation": "CN(CCCn1c(=N)n(CC(=O)c2ccc(Cl)cc2)c2cccc(Cl)c21)C(=O)c1ccc2ccccc2c1", "half-life, min": 9.5}
{"smiles-notation": "N=c1n(CC(=O)c2ccc(Cl)cc2)c2cccc(Cl)c2n1CC[C@@H]1CCCN1C(=O)c1cccc2cccnc12", "half-life, min": 7.5}
{"smiles-notation": "COc1ccccc1C(=O)N(C)CCCn1c(=N)n(CC(=O)c2ccc(Cl)cc2)c2cccc(Cl)c21", "half-life, min": 5.4}

// next item, half-life requested
[in] Reported half-life for CN(CCCn1c(=N)n(CC(=O)c2ccc(Cl)cc2)c2cccc(Cl)c21)C(=O)c1cccc2cccnc12 : what is it?
[out] 15

###

The compounds listed here are annotated with their pIC50.
measurement-target: C-X-C chemokine receptor type 3 (Homo sapiens, UniProt P49682)
Sequence (P49682 whole entry): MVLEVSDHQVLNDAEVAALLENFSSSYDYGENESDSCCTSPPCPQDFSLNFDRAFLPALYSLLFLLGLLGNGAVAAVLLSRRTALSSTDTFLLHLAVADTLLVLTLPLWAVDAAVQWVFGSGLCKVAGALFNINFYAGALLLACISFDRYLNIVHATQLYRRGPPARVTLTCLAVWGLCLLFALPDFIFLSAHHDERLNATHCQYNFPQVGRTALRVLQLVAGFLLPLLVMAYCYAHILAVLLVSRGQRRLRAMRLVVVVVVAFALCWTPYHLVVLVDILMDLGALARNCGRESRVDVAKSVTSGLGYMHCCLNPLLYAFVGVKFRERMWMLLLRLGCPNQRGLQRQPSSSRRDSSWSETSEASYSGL
assay-explanation: Antagonist activity at human CXCR3 expressed in CHO cell […] assessed as inhibition of calcium flux by FLIPR
Format: functional, cell-based
FYI, pIC50 means -log10 of a concentration in mol per litre.

Here is how some compounds turned out for pIC50.
{"compound": "CN(CCn1c(=N)n(CC(=O)c2ccc(Cl)cc2)c2cccc(Cl)c21)C(=O)Cc1ccccc1", "measured-quantity": "pIC50", "readout-value": 6.52}
{"compound": "CN(CCCn1c(=N)n(CC(=O)c2ccc(Cl)cc2)c2cccc(Cl)c21)C(=O)Cc1ccccc1", "measured-quantity": "pIC50", "readout-value": 7.15}
{"compound": "CN(CCCn1c(=N)n(CC(=O)c2ccc(Cl)cc2)c2cccc(Cl)c21)C(=O)c1cccc2cccnc12", "measured-quantity": "pIC50", "readout-value": 7.70}
{"compound": "CN(CCn1c(=N)n(CC(=O)c2ccc(Cl)cc2)c2ccccc21)C(=O)C1CCCCC1", "measured-quantity": "pIC50", "readout-value": 6.05}
{"compound": "CCOC(=O)CCn1c(=N)n(CC(=O)c2ccc(Cl)cc2)c2ccccc21", "measured-quantity": "pIC50", "readout-value": 5.60}
{"compound": "N=c1n(CC(=O)c2ccc(Cl)cc2)c2cccc(Cl)c2n1C[C@H]1CCCN(C(=O)c2cccc3cccnc23)C1", "measured-quantity": "pIC50", "readout-value": 7.70}

[in] Reported pIC50 for CN(CCCn1c(=N)n(CC(=O)c2ccc(Cl)cc2)c2cccc(Cl)c21)C(=O)C(C)(C)C : what is it?
[out] 6.40

[in] Reported pIC50 for COc1ccccc1C(=O)N(C)CCCn1c(=N)n(CC(=O)c2ccc(Cl)cc2)c2cccc(Cl)c21 : what is it?
[out] 7.70

[in] Reported pIC50 for N=c1n(CC(=O)c2ccc(Cl)cc2)c2cccc(Cl)c2n1CC1CCCN(C(=O)c2cccc3cccnc23)C1 (stereo not drawn) : what is it?
[out] 7.70

[in] Reported pIC50 for CN(CCn1c(=N)n(CC(=O)c2ccc(Cl)cc2)c2ccccc21)C(=O)c1ccccc1 : what is it?
[out] 5.64

[in] Reported pIC50 for CC(=O)N(C)CCn1c(=N)n(CC(=O)c2ccc(Cl)cc2)c2ccccc21 : what is it?
[out] 5.47
